test system: MDA-MB-231; experiment: NCI tumour cell line growth inhibition, 48 h
Active and inactive are the calls of the source. Cut-off read from the data, not from the text of the source: active = GI50 up to about 1.1 µM and inactive = higher.
Please go through the items and note down their GI50.

Before answering, review these 4 worked examples.
Task: GET /values?readout=GI50&item= CC(C)CC(NC(=O)C(CCI)Cc1ccccc1)C(=O)Nc1ccccc1 (centres undefined)
Result: > 100 µM (inactive)

Task: Same lookup for "COc1ccc(/C=C(\C#N)c2nc(-c3cc4ccccc4oc3=O)cs2)cc1" , please.
Result: 14.8 µM (inactive)

Task: Same lookup for COC(=O)C1CCC(=O)N1C(c1ccc2c(c1)OCO2)c1cc(OC)c(OC)c(OC)c1 (centres undefined) , please.
Result: > 100 µM (inactive)

Task: Same lookup for "N#Cc1ccc(-c2nc3c(N)nc(-c4ccccc4)nc3o2)cc1" , please.
Result: 13.3 µM (inactive)

Go through the items and report each one's GI50.
1. CCCC(=O)O[C@H]1C=C2C[C@@]34SS[C@]5(CC6=C[C@H](OC(C)=O)[C@@H]7O[C@@H]7[C@H]6N5C3=O)C(=O)N4[C@@H]2[C@H]2O[C@H]21
2. COc1ccc(-c2c3c([nH]c(=S)c2C#N)CC(C)(C)CC3=O)cc1
3. OCCOCCN1CCN(c2nc(N3CCCC3)c3nc(Cl)c(NCc4ccccc4)nc3n2)CC1

Result:
["0.0254 µM (active)", "> 100 µM (inactive)", "16.9 µM (inactive)"]

Go through the items and report each one's GI50.
1. O=c1[nH]c2cc(C(F)(F)F)ccc2nc1C(F)(F)F
2. Cc1cc(NS(=O)(=O)c2ccc(Nc3c4ccccc4nc4c(C(=O)NCCO)cccc34)cc2)no1

Result:
1. 31.3 µM (inactive)
2. 17.9 µM (inactive)
